pIC50: −log10 of the molar value.
The entries that follow carry pIC50 values tested on Epidermal growth factor receptor (Homo sapiens, UniProt P00533), drawn from several published reports.
reported endpoint: pIC50

INSERT INTO assay_data (molecule, assay_target, result_number) VALUES
  ('O=C1Nc2ccc(F)cc2/C1=N/NC(=O)c1ccc(Nc2ncnc3ccccc23)cc1', 'Epidermal growth factor receptor (Homo sapiens, UniProt P00533)', 7.08),
  ('CC12CCC(C/C1=N/N=C/c1cn(-c3ccc(S(N)(=O)=O)cc3)nc1-c1ccc(Br)cc1)C2(C)C (stereo not shown)', 'Epidermal growth factor receptor (Homo sapiens, UniProt P00533)', 6.70),
  ('Cc1occ(Sc2nc3ccccc3c(=O)n2-c2ccccc2)c1C1=NN(C(N)=S)C(c2ccc(Cl)cc2)C1 (stereo not shown)', 'Epidermal growth factor receptor (Homo sapiens, UniProt P00533)', 5.07),
  ('Cc1ccc(S(=O)(=O)N/N=C/c2c(O)c3ccccc3[nH]c2=O)cc1', 'Epidermal growth factor receptor (Homo sapiens, UniProt P00533)', 7.04);
